TARGET SYSTEM: HLA-A*03:01
METHOD: IEDB peptide-MHC binding, purified MHC/competitive/radioactivity; filed as Kd, often an IC50 or EC50 that approximates it; bounds were set here for any values at or beyond the usual limits of such assays
CONDITIONS: source organism: Dengue virus 2 Peru/IQT2913/1996
QUANTITY MEASURED: Kd (nM)
Response body: numeric value in nM, unit text excluded.

HLA-A*03:01 Kd of TTFITPMLR is 13.2

###

TARGET SYSTEM: HLA-B*39:01
METHOD: IEDB peptide-MHC binding, purified MHC/direct/fluorescence; filed as Kd, often an IC50 or EC50 that approximates it; bounds were set here for any values at or beyond the usual limits of such assays
CONDITIONS: source organism: Mammarenavirus machupoense
pKd: −log10 of the molar value.
QUANTITY MEASURED: pKd

pKd reading for LITEQFLCY : ≤ 4.70
